Entry source: paper PMC6261661

# subject-of-test: mMC3R (Mus musculus)
# Sequence (P33033 whole entry): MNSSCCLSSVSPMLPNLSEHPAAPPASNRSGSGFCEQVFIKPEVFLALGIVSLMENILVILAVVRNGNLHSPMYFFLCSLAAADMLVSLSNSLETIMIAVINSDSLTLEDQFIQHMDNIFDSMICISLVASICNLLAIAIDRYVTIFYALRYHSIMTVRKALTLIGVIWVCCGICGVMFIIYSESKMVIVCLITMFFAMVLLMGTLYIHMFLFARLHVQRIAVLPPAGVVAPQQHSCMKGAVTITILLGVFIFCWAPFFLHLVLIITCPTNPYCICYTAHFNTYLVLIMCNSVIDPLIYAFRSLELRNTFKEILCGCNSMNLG
# procedure-summary: Antagonist Schild analysis against agonist MTII at mMC3R
# Type: cell-based
# settings: Ant = antagonist; SA = some stimulatory activity at 100 µM
Square brackets hold non-standard residues; d marks the D form. Peptide text beside a SMILES is read from it. dBip = N[C@H](Cc1ccc(-c2ccccc2)cc1)C(=O)O; dPhe(4-I) = N[C@H](Cc1ccc(I)cc1)C(=O)O; 3Pal = N[C@@H](Cc1cccnc1)C(=O)O; 2Thi = N[C@@H](Cc1cccs1)C(=O)O
parameter-measured: mMC3R pharmacology class printed in Fold Diff column (Ant, SA)

{"compound": "CC(=O)N[C@@H](Cc1ccccc1)C(=O)N[C@H](Cc1ccc(I)cc1)C(=O)N[C@@H](CCCNC(=N)N)C(=O)N[C@@H](Cc1c[nH]c2ccccc12)C(N)=O [Peptide 15, Ac-Phe-(pI)DPhe-Arg-Trp-NH2] (Ac-F[dPhe(4-I)]RW-NH2)", "subject-of-test": "mMC3R (Mus musculus)", "result": "SA Ant"}
{"compound": "CC(=O)N[C@@H](Cc1c[nH]c2ccccc12)C(=O)N[C@H](Cc1ccc(-c2ccccc2)cc1)C(=O)N[C@@H](CCCNC(=N)N)C(=O)N[C@@H](Cc1c[nH]c2ccccc12)C(N)=O [Peptide 18, Ac-Trp-DBip-Arg-Trp-NH2] (Ac-W[dBip]RW-NH2)", "subject-of-test": "mMC3R (Mus musculus)", "result": "Ant"}
{"compound": "CC(=O)N[C@@H](Cc1c[nH]c2ccccc12)C(=O)N[C@H](Cc1ccc(I)cc1)C(=O)N[C@@H](CCCNC(=N)N)C(=O)N[C@@H](Cc1c[nH]c2ccccc12)C(N)=O [Peptide 13, Ac-Trp-(pI)DPhe-Arg-Trp-NH2] (Ac-W[dPhe(4-I)]RW-NH2)", "subject-of-test": "mMC3R (Mus musculus)", "result": "Ant"}
{"compound": "CC(=O)N[C@@H](Cc1c[nH]cn1)C(=O)N[C@H](Cc1ccc(-c2ccccc2)cc1)C(=O)N[C@@H](CCCNC(=N)N)C(=O)N[C@H](Cc1ccc(-c2ccccc2)cc1)C(N)=O [Peptide 35, Ac-His-DBip-Arg-DBip-NH2] (Ac-H[dBip]R[dBip]-NH2)", "subject-of-test": "mMC3R (Mus musculus)", "result": "Ant"}
{"compound": "CC(=O)N[C@@H](Cc1cccs1)C(=O)N[C@H](Cc1ccc(I)cc1)C(=O)N[C@@H](CCCNC(=N)N)C(=O)N[C@@H](Cc1c[nH]c2ccccc12)C(N)=O [Peptide 14, Ac-2Thi-(pI)DPhe-Arg-Trp-NH2] (Ac-[2Thi][dPhe(4-I)]RW-NH2)", "subject-of-test": "mMC3R (Mus musculus)", "result": "SA Ant"}

Let us move to another entry and its mMC3R pharmacology class printed in Fold Diff column (Ant, SA).
// recorded mMC3R pharmacology class printed in Fold Diff column (Ant, SA) for CC(=O)N[C@@H](Cc1cccnc1)C(=O)N[C@H](Cc1ccc(I)cc1)C(=O)N[C@@H](CCCNC(=N)N)C(=O)N[C@@H](Cc1c[nH]c2ccccc12)C(N)=O [Peptide 12, Ac-3PAL-(pI)DPhe-Arg-Trp-NH2] (Ac-[3Pal][dPhe(4-I)]RW-NH2) : Ant
